# Measured on: hFXR (Homo sapiens (Human), UniProt Q96RI1)
# Sequence (Q96RI1 whole entry): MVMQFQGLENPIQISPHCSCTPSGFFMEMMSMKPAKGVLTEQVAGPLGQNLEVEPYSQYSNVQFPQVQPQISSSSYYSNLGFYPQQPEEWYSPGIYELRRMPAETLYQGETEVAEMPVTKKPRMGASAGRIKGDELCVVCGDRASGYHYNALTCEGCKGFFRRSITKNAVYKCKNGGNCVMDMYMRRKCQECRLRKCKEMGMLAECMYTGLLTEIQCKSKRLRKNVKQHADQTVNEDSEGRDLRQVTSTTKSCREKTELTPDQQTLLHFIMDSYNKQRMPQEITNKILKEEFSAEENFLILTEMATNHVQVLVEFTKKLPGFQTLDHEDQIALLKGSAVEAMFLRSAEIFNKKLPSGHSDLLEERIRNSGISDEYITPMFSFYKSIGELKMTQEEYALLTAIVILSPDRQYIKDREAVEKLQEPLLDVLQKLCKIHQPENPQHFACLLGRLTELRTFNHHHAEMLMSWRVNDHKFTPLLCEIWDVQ
# Sequence (P19793 whole entry partner): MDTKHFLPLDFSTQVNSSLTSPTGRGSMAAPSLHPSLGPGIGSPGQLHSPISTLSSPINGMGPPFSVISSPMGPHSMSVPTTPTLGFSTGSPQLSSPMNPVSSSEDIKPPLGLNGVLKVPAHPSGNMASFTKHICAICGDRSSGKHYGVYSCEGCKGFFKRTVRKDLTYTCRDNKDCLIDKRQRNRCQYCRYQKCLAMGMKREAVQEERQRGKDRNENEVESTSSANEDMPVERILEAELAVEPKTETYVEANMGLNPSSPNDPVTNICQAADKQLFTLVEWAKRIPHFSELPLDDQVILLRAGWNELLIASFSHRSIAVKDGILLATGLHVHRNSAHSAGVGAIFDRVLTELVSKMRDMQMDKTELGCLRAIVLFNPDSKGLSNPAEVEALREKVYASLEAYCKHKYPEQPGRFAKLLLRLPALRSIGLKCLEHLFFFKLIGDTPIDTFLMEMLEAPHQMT
# Method summary: In Vitro FXR Assay (TK)
# Reported conditions: CV-1 cells transfected with hFXR, hRXR, TK-ECRE-luc and pCMX-YFP; incubated 18 hrs; luminescence; maximum efficacy <25% of the Fexarmine control classified as '+'
pEC50: −log10 of the molar value.
Let's look at some compounds and their measured pEC50.

Smiles input	pEC50
COc1ccc([C@H]2CC[C@H](CN(c3cccc(-c4cnn(CCN(C)C)c4)c3)C(=O)[C@H]3CC[C@H](O)CC3)CC2)cc1C	≤ 6.00
COc1ncc([C@H]2CC[C@H](CN(c3cc(-c4cnn(C(C)C)c4)ccn3)C(=O)[C@H]3CC[C@H](O)CC3)CC2)cc1C	≥ 6.60
COc1ccc([C@H]2CC[C@H](CN(c3cc(-c4cnn(C(C)C)c4)ccn3)C(=O)[C@H]3CC[C@H](O)CC3)CC2)cc1C#N	≥ 6.60
Cn1ccc2cc([C@H]3CC[C@H](CN(c4cccc(-c5cnn(C6CC6)c5)c4)C(=O)[C@H]4CC[C@H](O)CC4)CC3)ncc21	≤ 6.00
COc1ccc([C@H]2CC[C@H](CN(c3cccc(-c4cnn(C5CC5)c4)c3)C(=O)[C@H]3CC[C@H](O)CC3)CC2)cc1C	≥ 6.60
COc1ccc([C@H]2CC[C@H](CN(c3cccc(-c4cnn(C5CC5)c4)c3)C(=O)[C@H]3CC[C@H](O)CC3)CC2)nc1C#N	≥ 6.60

====

In this section we review reported EC50 values for a set of compounds.
# Measured on: hFXR (Homo sapiens (Human))
# Method summary: In Vitro FXR Assay (TK)
# Reported conditions: CV-1 cells transfected with hFXR, hRXR, TK-ECRE-luc and pCMX-YFP; incubated 18 hrs; luminescence; maximum efficacy <25% of the Fexarmine control classified as '+'
Readout: EC50

Compound	Readout	Observed result
COc1ncc([C@H]2CC[C@H](CN(c3cccc(-c4cnn(C5CC5)c4)c3)C(=O)[C@H]3CC[C@H](O)CC3)CC2)cc1C [Compound 5.12]	EC50	≤ 250 nM
CCCn1cc(-c2cccc(N(C[C@H]3CC[C@H](c4ccc(OC)c(C)c4)CC3)C(=O)[C@H]3CC[C@H](O)CC3)c2)cn1 [Compound 3.04]	EC50	≤ 250 nM
COc1ccc([C@H]2CC[C@H](CN(c3cccc(C#Cc4ccn(C)n4)c3)C(=O)[C@H]3CC[C@H](O)CC3)CC2)cc1C [Compound 4.02]	EC50	≤ 250 nM

====

# Measured on: hFXR (Homo sapiens (Human))
# Method summary: In Vitro FXR Assay (TK)
# Reported conditions: CV-1 cells transfected with hFXR, hRXR, TK-ECRE-luc and pCMX-YFP; incubated 18 hrs; luminescence; maximum efficacy <25% of the Fexarmine control classified as '+'

Compound	Measured on	EC50
COc1ccc([C@H]2CC[C@H](CN(c3cc(-c4cnn(C(C)C)c4)ccn3)C(=O)[C@H]3CC[C@H](O)CC3)CC2)cc1C	hFXR (Homo sapiens (Human))	≤ 250 nM
COc1ccc(C23CCC(CN(c4cc(-c5cnn(C(C)C)c5)ccn4)C(=O)[C@H]4CC[C@H](O)CC4)(CC2)CC3)cc1C	hFXR (Homo sapiens (Human))	≤ 250 nM
COc1cnc([C@H]2CC[C@H](CN(c3cccc(-c4cnn(C5CC5)c4)c3)C(=O)[C@H]3CC[C@H](O)CC3)CC2)cc1C	hFXR (Homo sapiens (Human))	250 to 1000 nM
COc1ccc([C@H]2CC[C@H](CN(c3cc(-c4cnn(C(C)C)c4)ccn3)C(=O)[C@H]3CC[C@H](O)CC3)CC2)nc1C	hFXR (Homo sapiens (Human))	≤ 250 nM
COc1ccc([C@H]2CC[C@H](CN(c3cccc(-c4cnn(C(C)C)c4)c3)C(=O)[C@H]3CC[C@H](N)CC3)CC2)cc1C	hFXR (Homo sapiens (Human))	≥ 1000 nM
CCC(C)n1cc(-c2cccc(N(C[C@H]3CC[C@H](c4ccc(OC)c(C)c4)CC3)C(=O)[C@H]3CC[C@H](O)CC3)c2)cn1 (stereo partly drawn)	hFXR (Homo sapiens (Human))	≤ 250 nM

====

# Measured on: hFXR (Homo sapiens (Human), UniProt Q96RI1)
# Method summary: In Vitro FXR Assay (TK)
# Reported conditions: CV-1 cells transfected with hFXR, hRXR, TK-ECRE-luc and pCMX-YFP; incubated 18 hrs; luminescence; maximum efficacy <25% of the Fexarmine control classified as '+'
Collected EC50 values appear next to each entry.

Smiles input	Measured on	EC50
COc1ccc([C@H]2CC[C@H](CN(c3cccc(-c4cnn(CC(F)F)c4)c3)C(=O)[C@H]3CC[C@H](O)CC3)CC2)cc1C	hFXR (Homo sapiens (Human), UniProt Q96RI1)	≤ 250 nM
COc1ccc([C@H]2CC[C@H](CN(c3cc(-c4cnn(C(C)C)c4)ccn3)C(=O)[C@H]3CC[C@H](O)CC3)CC2)nc1C#N	hFXR (Homo sapiens (Human), UniProt Q96RI1)	250 to 1000 nM
COc1ccc([C@H]2CC[C@H](CN(c3cccc(-c4cnn(C5CC5)c4)c3)C(=O)[C@H]3CC[C@H](O)CC3)CC2)nc1C	hFXR (Homo sapiens (Human), UniProt Q96RI1)	≤ 250 nM
COc1ccc([C@H]2CC[C@H](CN(c3cccc(-c4cnn(C5CCC5)c4)c3)C(=O)[C@H]3CC[C@H](O)CC3)CC2)nc1C	hFXR (Homo sapiens (Human), UniProt Q96RI1)	≤ 250 nM
COc1ccc([C@H]2CC[C@H](CN(c3cccc(-c4cnn(C5CC5)c4)c3)C(=O)[C@H]3CC[C@H](O)CC3)CC2)cc1C#N	hFXR (Homo sapiens (Human), UniProt Q96RI1)	≤ 250 nM
COc1ccc([C@H]2CC[C@H](CN(c3cccc(-c4cnn(C(C)(C)C)c4)c3)C(=O)[C@H]3CC[C@H](O)CC3)CC2)cc1C	hFXR (Homo sapiens (Human), UniProt Q96RI1)	≤ 250 nM
COc1ccc([C@H]2CC[C@H](CN(c3cccc(-c4cnn(C5COC5)c4)c3)C(=O)[C@H]3CC[C@H](O)CC3)CC2)cc1C	hFXR (Homo sapiens (Human), UniProt Q96RI1)	≤ 250 nM
COc1ccc([C@H]2CC[C@H](CN(c3cc(-c4cnn(C5CC5)c4)ccn3)C(=O)[C@H]3CC[C@H](O)CC3)CC2)nc1C	hFXR (Homo sapiens (Human), UniProt Q96RI1)	250 to 1000 nM
COc1ccc([C@H]2CC[C@H](CN(c3cc(-c4cnn(C5CC5)c4)ccn3)C(=O)[C@H]3CC[C@H](O)CC3)CC2)cc1C#N	hFXR (Homo sapiens (Human), UniProt Q96RI1)	≤ 250 nM
Cc1cc([C@H]2CC[C@H](CN(c3cccc(-c4cnn(C5CC5)c4)c3)C(=O)[C@H]3CC[C@H](O)CC3)CC2)ccc1O	hFXR (Homo sapiens (Human), UniProt Q96RI1)	250 to 1000 nM
COc1ccc([C@H]2CC[C@H](CN(c3cccc(-c4cnn(C(C)C)c4)c3)C(=O)[C@H]3CC[C@H](O)CC3)CC2)nc1C#N	hFXR (Homo sapiens (Human), UniProt Q96RI1)	≤ 250 nM
COc1ccc([C@H]2CC[C@H](CN(c3cccc(-c4cnn(C(C)C)c4)c3)C(=O)[C@H]3CC[C@](C)(O)CC3)CC2)cc1C	hFXR (Homo sapiens (Human), UniProt Q96RI1)	≤ 250 nM
COc1ccc([C@H]2CC[C@H](CN(c3cccc(C#Cc4cnn(C)c4)c3)C(=O)[C@H]3CC[C@H](O)CC3)CC2)cc1C	hFXR (Homo sapiens (Human), UniProt Q96RI1)	≤ 250 nM
COc1ncc([C@H]2CC[C@H](CN(c3cc(-c4cnn(C(C)C)c4)ccn3)C(=O)[C@H]3CC[C@H](O)CC3)CC2)cc1Cl	hFXR (Homo sapiens (Human), UniProt Q96RI1)	≤ 250 nM
COc1ccc([C@H]2CC[C@H](CN(c3cccc(C#Cc4cc[nH]n4)c3)C(=O)[C@H]3CC[C@H](O)CC3)CC2)cc1C	hFXR (Homo sapiens (Human), UniProt Q96RI1)	≤ 250 nM
O=C([C@H]1CC[C@H](O)CC1)N(C[C@H]1CC[C@H](c2ccc3c(c2)OCO3)CC1)c1cccc(-c2cnn(C3CC3)c2)c1	hFXR (Homo sapiens (Human), UniProt Q96RI1)	≤ 250 nM
COc1ccc([C@H]2CC[C@H](CN(c3cccc(-c4cnn(C(F)(F)F)c4)c3)C(=O)[C@H]3CC[C@H](O)CC3)CC2)cc1C	hFXR (Homo sapiens (Human), UniProt Q96RI1)	≤ 250 nM
COc1ccc([C@H]2CC[C@H](CN(c3cccc(-c4cnn(CC(C)C)c4)c3)C(=O)[C@H]3CC[C@H](O)CC3)CC2)cc1C	hFXR (Homo sapiens (Human), UniProt Q96RI1)	≤ 250 nM
COc1ccc([C@H]2CC[C@H](CN(c3cccc(-n4ccc(C)n4)c3)C(=O)[C@H]3CC[C@H](O)CC3)CC2)cc1C	hFXR (Homo sapiens (Human), UniProt Q96RI1)	250 to 1000 nM
COc1ccc([C@H]2CC[C@H](CN(c3cccc(-c4cnn(CC(F)(F)F)c4)c3)C(=O)[C@H]3CC[C@H](O)CC3)CC2)cc1C	hFXR (Homo sapiens (Human), UniProt Q96RI1)	≤ 250 nM
COc1ccc([C@H]2CC[C@H](CN(c3cccc(-c4cnn(C5CCC5)c4)c3)C(=O)[C@H]3CC[C@H](O)CC3)CC2)cc1C	hFXR (Homo sapiens (Human), UniProt Q96RI1)	≤ 250 nM
COc1ccc([C@H]2CC[C@H](CN(c3cccc(-c4cnn(C(F)F)c4)c3)C(=O)[C@H]3CC[C@H](O)CC3)CC2)cc1C	hFXR (Homo sapiens (Human), UniProt Q96RI1)	≤ 250 nM
COc1ccc([C@H]2CC[C@H](CN(c3cccc(-c4cnn(C(C)C)c4)c3)C(=O)[C@H]3CC[C@H](O)CC3)CC2)nc1C	hFXR (Homo sapiens (Human), UniProt Q96RI1)	≤ 250 nM
COc1ccc([C@H]2CC[C@H](CN(c3cccc(-c4cnn(C)c4)c3)C(=O)[C@H]3CC[C@H](O)CC3)CC2)cc1C	hFXR (Homo sapiens (Human), UniProt Q96RI1)	≤ 250 nM
COc1ccc(C23CCC(CN(c4cccc(-c5cnn(C6CC6)c5)c4)C(=O)[C@H]4CC[C@H](N)CC4)(CC2)CC3)cc1C	hFXR (Homo sapiens (Human), UniProt Q96RI1)	250 to 1000 nM
COc1ccc([C@H]2CC[C@H](CN(c3cccc(-c4cnn(CCF)c4)c3)C(=O)[C@H]3CC[C@H](O)CC3)CC2)cc1C	hFXR (Homo sapiens (Human), UniProt Q96RI1)	≤ 250 nM
